system.name: recombinant human GST-Syk (Homo sapiens)
Construct: purchased Carna Biosciences 08-176
protocol.summary: Homogeneous Time-Resolved Fluorescence (HTRF) assay for the recombinant human Syk enzyme
Format: biochemical
run.conditions: recombinant human GST-Syk 5 pM, ATP 25 μM, 10-dose titration 10 μM to 0.508 nM; read-out: rhSYK Activity IC50
pIC50: −log10 of the molar value.
assay.metric: pIC50

> print(dat)
                                    molecule  assay.metric  test.result
 1  Cc1cc(Nc2nccc(C(F)F)n2)cc(-c2cn(C3CCCCC3O)nn2)c1 (stereo not shown) [Example 4.35]         pIC50         7.96
 2  Cc1cc(Nc2cc(C(F)(F)F)ccn2)nc(-c2nnc[nH]2)c1         pIC50         6.48
 3  COC(=O)C1CCC(O)(Cn2cc(-c3cc(C)cc(Nc4nccc(C(F)(F)F)n4)c3)nn2)CC1(C)C (stereo not shown)         pIC50         6.84
 4  Cc1cc(Nc2cc(C(F)F)ccn2)nc(-c2cn(CC(C)(O)CO)nn2)c1 (stereo not shown) [Example 21.40]         pIC50         8.23
 5  Cc1cc(Nc2cc(C(F)(F)F)ccn2)nc(-c2cn(Cc3[nH]cnc3C)nn2)c1         pIC50         8.80
 6  Cc1cc(Nc2cc(C)c(Cl)cn2)nc(-c2cn(CC(C)(O)C(C)(C)O)nn2)c1 (stereo not shown) [Example 21.24]         pIC50         7.50
 7  Cc1cc(Nc2cc(C(F)(F)F)ccn2)nc(-c2cn(C(C)C(=O)NCCc3cccc(Oc4ccccc4)c3)nn2)c1 (stereo not shown)         pIC50         5.84
 8  Cc1cc(Nc2nccc(C(F)F)n2)cc(-c2cn(CC(C)(O)CC#N)nn2)c1 (single isomer, unassigned) [Example 27.1]         pIC50         7.71
 9  Cc1cc(Nc2cc(C(F)(F)F)ccn2)nc(-c2cn(C3CCC(C(=O)O)C(C)(C)C3)nn2)c1 (single isomer, unassigned) [Example 3.7]         pIC50         8.43
10  Cc1cc(Nc2cc(C(F)F)ccn2)nc(-c2cn(CC3CNC(=O)O3)nn2)c1 (single isomer, unassigned) [Example 7.12]         pIC50         8.70
11  Cc1cc(Nc2cc(C(F)(F)F)ccn2)nc(-c2cn(C3CNCC3O)nn2)c1 (stereo not shown) [Example 4.15]         pIC50         7.48
12  Cc1cc(Nc2cc(C(F)(F)F)ccn2)nc(-c2cn(CC(O)C(C)O)nn2)c1 (stereo not shown)         pIC50         7.73
13  COc1cc2c(cc1OC)CN(C(=O)C(C)n1cc(-c3cc(C)cc(Nc4cc(C(F)(F)F)ccn4)n3)nn1)C(C)C2 (stereo not shown)         pIC50         5.57
14  Cc1cc(Nc2cc(C(F)F)ccn2)nc(-c2cn(C3CCCC(O)C3O)nn2)c1 (stereo not shown) [Example 21.38]         pIC50         8.43
15  Cc1cc(Nc2cc(C(C)(C)C)ccn2)nc(-c2cn(C(C)c3ccc(C(=O)O)cc3)nn2)c1 (stereo not shown)         pIC50         8.26
16  Cc1cc(Nc2cc(C(F)(F)F)ccn2)nc(-c2cn(CC(O)Cn3cccn3)nn2)c1 (stereo not shown)         pIC50         8.18
17  Cc1cc(Nc2cc(C(F)F)ccn2)nc(-c2cn(CC3OC(=O)NC3C)nn2)c1 (single isomer, unassigned) [Example 7.14]         pIC50         8.80
18  Cc1cc(Nc2nccc(C(F)(F)F)n2)cc(-c2cn(CC3(O)CCC(C(=O)O)C(C)(C)C3)nn2)c1 (single isomer, unassigned) [Example 3.3]         pIC50         7.27
19  COCC(O)Cn1cc(-c2cc(C)cc(Nc3cc(C(F)(F)F)ccn3)n2)nn1 (stereo not shown)         pIC50         8.27
20  Cc1cc(Nc2nccc(C(F)(F)F)n2)cc(-c2cn(CCCN)nn2)c1         pIC50         7.48
21  COC(=O)C1CCC(n2cc(-c3cc(C)cc(Nc4cc(C(F)(F)F)ccn4)n3)nn2)CC1(C)C (stereo not shown)         pIC50         6.50
22  Cc1cc(Nc2nccc(C(F)F)n2)cc(-c2cn(C(C)C(C)(O)CO)nn2)c1 (single isomer, unassigned) [Example 30.3]         pIC50         8.10

====

system.name: recombinant human GST-Syk (Homo sapiens)
Construct: purchased Carna Biosciences 08-176
protocol.summary: Homogeneous Time-Resolved Fluorescence (HTRF) assay for the recombinant human Syk enzyme
Type: biochemical
run.conditions: recombinant human GST-Syk 5 pM, ATP 25 μM, 10-dose titration 10 μM to 0.508 nM; read-out: rhSYK Activity IC50
Exam item: assign yes (1) to entries whose IC50 is below 10 nM and no (0) to entries at or above 10 nM. Note that a value of exactly 10 nM receives no (0).

> print(dat)
                                   compound  qualitative.label
1  Cc1cc(Nc2cc(C(F)(F)F)ccn2)nc(-c2cn(C(CO)c3ccccc3)nn2)c1 (centres unmarked) [Example 13.8]            yes (1)
2  Cc1cc(Nc2cc(C(F)(F)F)ccn2)nc(-c2cn(CCOC(N)=O)nn2)c1 [Example 5.110]            yes (1)
3  Cc1cc(Nc2nccc(C(F)(F)F)n2)cc(-c2cn(C(C)C(O)CC#N)nn2)c1 (single isomer, unassigned) [Example 4.7]             no (0)
4  Cc1cc(Nc2nccc(C3CC3)n2)cc(-c2cn(CC(C)(O)C(C)(C)O)nn2)c1 (centres unmarked) [Example 21.26]             no (0)

====

system.name: recombinant human GST-Syk (Homo sapiens, UniProt P43405)
Construct: purchased Carna Biosciences 08-176
protocol.summary: Homogeneous Time-Resolved Fluorescence (HTRF) assay for the recombinant human Syk enzyme
Type: biochemical
run.conditions: recombinant human GST-Syk 5 pM, ATP 25 μM, 10-dose titration 10 μM to 0.508 nM; read-out: rhSYK Activity IC50
pIC50: −log10 of the molar value.
Quick reference: pIC50 of the listed items.
assay.metric: pIC50

> print(dat)
                                    molecule                               system.name  assay.metric  test.result
 1  Cc1cc(Nc2cc(C)c(F)cn2)nc(-c2cn(CC(C)(O)C(C)(C)O)nn2)c1 (stereo not drawn) [Example 21.29]  recombinant human GST-Syk (Homo sapiens, UniProt P43405)         pIC50         7.07
 2  Cc1cc(Nc2nccc(C(F)F)n2)cc(-c2cn(C(C)C(C)(O)CO)nn2)c1 (single isomer, unassigned) [Example 30.2]  recombinant human GST-Syk (Homo sapiens, UniProt P43405)         pIC50         8.20
 3  Cc1cc(Nc2nccc(C(F)F)n2)cc(-c2cn(CC3CNC(=O)O3)nn2)c1 (single isomer, unassigned) [Example 7.5]  recombinant human GST-Syk (Homo sapiens, UniProt P43405)         pIC50         8.15
 4  Cc1cc(Nc2cc(C(F)(F)F)ccn2)nc(-c2cn(CC(C)(O)CO)nn2)c1 (stereo not drawn) [Example 10.16]  recombinant human GST-Syk (Homo sapiens, UniProt P43405)         pIC50         8.21
 5  Cc1cc(Nc2cc(C(F)(F)F)ccn2)nc(-c2cn([C@@H]3CN(C(=O)CO)C[C@H]3O)nn2)c1 (racemic)  recombinant human GST-Syk (Homo sapiens, UniProt P43405)         pIC50         8.38
 6  Cc1cc(Nc2cc(C(F)F)ccn2)nc(-c2cn(CC3CNCCO3)nn2)c1 (single isomer, unassigned) [Example 26.2]  recombinant human GST-Syk (Homo sapiens, UniProt P43405)         pIC50         8.48
 7  Cc1cc(Nc2nccc(C(F)(F)F)n2)cc(-n2cc([C@@]3(O)CC[C@H](C(=O)O)C(C)(C)C3)nn2)c1  recombinant human GST-Syk (Homo sapiens, UniProt P43405)         pIC50         8.09
 8  Cc1cc(Nc2nccc(C(F)F)n2)cc(-c2cn(CC3(O)CNC(=O)C3)nn2)c1 (single isomer, unassigned) [Example 31.1]  recombinant human GST-Syk (Homo sapiens, UniProt P43405)         pIC50         8.14
 9  Cc1cc(Nc2cc(C(F)F)ccn2)nc(-c2cn(C3CCCCC3O)nn2)c1 (single isomer, unassigned) [Example 7.23]  recombinant human GST-Syk (Homo sapiens, UniProt P43405)         pIC50         8.41
10  Cc1cc(Nc2cc(C(F)(F)F)ccn2)nc(-c2cn(CC(=O)N3CCCC3)nn2)c1  recombinant human GST-Syk (Homo sapiens, UniProt P43405)         pIC50         7.09
11  Cc1cc(Nc2cc(C(F)(F)F)ccn2)nc(-c2nncn2C)c1  recombinant human GST-Syk (Homo sapiens, UniProt P43405)         pIC50         6.41
12  Cc1cc(Nc2nccc(C(F)F)n2)cc(-c2cn(CC(C)(O)CC#N)nn2)c1 (single isomer, unassigned) [Example 27.2]  recombinant human GST-Syk (Homo sapiens, UniProt P43405)         pIC50         7.68
13  CC(=O)N1CCN(C(=O)Cn2cc(-c3cc(C)cc(Nc4nccc(C(F)(F)F)n4)c3)nn2)CC1  recombinant human GST-Syk (Homo sapiens, UniProt P43405)         pIC50         7.16
14  Cc1cc(Nc2cc(C(F)(F)F)ccn2)nc(-c2cn(C(C)C(=O)NCCc3c[nH]c4ccc(OCc5ccccc5)cc34)nn2)c1 (stereo not drawn)  recombinant human GST-Syk (Homo sapiens, UniProt P43405)         pIC50         5.79
15  Cc1cc(Nc2cc(C(F)(F)F)ccn2)nc(-c2cn(C3CCNC(=O)CC3)nn2)c1 (racemic) [Example 11.1]  recombinant human GST-Syk (Homo sapiens, UniProt P43405)         pIC50         7.67
